# System: OVCAR-4
# Experiment description: NCI tumour cell line growth inhibition, 48 h
Activity calls are given as the source filed them. Rule as the data show it: active = GI50 up to about 1.1 µM and inactive = higher.
GI50 by entry:

>  <Molecule>
CCN(CC)CCCNC(=O)c1ccc([N+](=O)[O-])cc1O

>  <Reported result>
> 100 µM (inactive)

$$$$
>  <Molecule>
N#C/C(=C\c1cc(O)c(O)c(O)c1)C(N)=O

>  <Reported result>
74.8 µM (inactive)

$$$$
>  <Molecule>
C=CC(c1ccccc1)C1(O)c2cccc(O)c2C(=O)c2c(O)cccc21 (stereo not drawn)

>  <Reported result>
13.7 µM (inactive)

$$$$
>  <Molecule>
CN/C(N)=N/N=C1/C(=O)Nc2ccccc21

>  <Reported result>
> 100 µM (inactive)

$$$$
>  <Molecule>
CC(C)(C)OC(=O)c1cnc(Cl)cn1

>  <Reported result>
28.1 µM (inactive)

$$$$
>  <Molecule>
COc1ccc(C2C(C(=O)O)=C(CO)Oc3cc4c(cc32)OCO4)cc1 (stereo not drawn)

>  <Reported result>
> 100 µM (inactive)

$$$$
>  <Molecule>
c1ccc(CNCCCNCCCCNCCCNCc2ccccc2)cc1

>  <Reported result>
13.8 µM (inactive)

$$$$
>  <Molecule>
Cc1nc(Cl)c(CBr)c(Cl)n1

>  <Reported result>
1.83 µM (inactive)

$$$$

Query: What value of GI50 on OVCAR-4 does COc1cc(CCCOC(=O)/C=C/c2ccc(O)c(O)c2)cc(O)c1O have?
Response: 40 µM (inactive)

Query: What value of GI50 on OVCAR-4 does Cc1ccc(CC2(OCCN(C)C)CCC(C(C)(C)C)CC2)cc1 (stereo not drawn) have?
Response: 5.13 µM (inactive)

Query: What value of GI50 on OVCAR-4 does O=C1/C(=C\c2ccc(Cl)cc2Cl)Sc2scc(-c3cccc([N+](=O)[O-])c3)[n+]21 have?
Response: 12 µM (inactive)

---

GI50 by entry:
# Test system: MDA-MB-435
# Experiment description: NCI tumour cell line growth inhibition, 48 h
Calls of active or inactive are those of the source. No stated cut-off is given here; in the data, active = GI50 up to about 1.1 µM and inactive = higher.

Would you please look over these solved cases?
>  <Compound>
COc1cc(C2C(Cl)C(=O)N2NC(=O)c2ccc(NC(C)=O)cc2OC)ccc1O (stereo unspecified)

>  <Reported result>
28 µM (inactive)

$$$$
>  <Compound>
O=C(CC(=O)N(C(=O)c1ccccc1)c1ccc(Cl)cc1)N/N=C\c1ccccc1O

>  <Reported result>
> 100 µM (inactive)

$$$$
>  <Compound>
O=c1[nH]c(=O)n(CCOc2ccc(Cl)cc2)cc1Nc1ccccc1

>  <Reported result>
> 100 µM (inactive)

$$$$
>  <Compound>
Cc1c2cc[n+](C)cc2c(C)c2c1oc1ccccc12

>  <Reported result>
7.83 µM (inactive)

$$$$
>  <Compound>
N/N=C(\N)SCCCCCCCCCCS/C(N)=N/N

>  <Reported result>
32.7 µM (inactive)

$$$$

Query: Look at this compound and give its reported GI50. COc1cc2c(cc1OC)C(CCN)=NCC2
Response: 16.5 µM (inactive)

Query: Look at this compound and give its reported GI50. Cc1cc(Cl)ccc1/N=N/C(=O)NNc1ccc(Cl)cc1C
Response: 20.7 µM (inactive)

Query: Look at this compound and give its reported GI50. O=[N+]([O-])c1ccc2nc(O)c(/C=C(\O)c3ccccc3)nc2c1
Response: 35.2 µM (inactive)

Query: Look at this compound and give its reported GI50. CCCc1c(OC)c(=O)c2c(O)cc(OC)c3c4c(OC)cc(O)c5c(=O)c(OC)c(CCC)c(c1c23)c54
Response: 1.85 µM (inactive)

Query: Look at this compound and give its reported GI50. COc1ccc2c(c1)O[C@@H]1[C@@H](OC3OC(CO)C(O)C(O)C3O)Oc3cc(OC)c(OC)cc3[C@]1(O)C2=O (stereo partly specified)
Response: > 100 µM (inactive)

Query: Look at this compound and give its reported GI50. COc1cc(/C=C/C(=O)N[C@@H]2C(=O)N3[C@@H]2SC(C)(C)[C@@H]3C(=O)O)ccc1O
Response: > 100 µM (inactive)

Query: Look at this compound and give its reported GI50. CCOC(=O)[C@@]12C3C=CC(CC3)[C@]1(C(=O)c1ccccc1)C(=O)C(=O)N2c1ccccc1 (stereo partly specified)
Response: > 100 µM (inactive)
